# Test system: Escherichia coli TOP10;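 further: peptides expressed intracellularly from a pBAD plasmid library in pooled LB shake-flask culture, induced with 0.3% L-arabinose, DNA abundance read by NGS, three biological replicates, DESeq2 with apeglm shrinkage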
# Assay name: shrunken log2 fold change of peptide-encoding DNA abundance (4.5 h post-induction vs induction); higher = less antimicrobial activity (less host growth inhibition)
# Conditions: time post-induction: 4.5 h; library: site-saturation at positions 5, 18, 19, 20
Documented shrunken log2 fold change across a set of sequences
Note: the reply should be a number with no unit written.

The examples below pair each entry with its known result.
Sequence record	shrunken log2 fold change
RRIRVRPPRLPRPRPRPVDQPRP	-0.0903
RRIRIRPPRLPRPRPRPKQVPRP	-0.118
RRIRTRPPRLPRPRPRPCSDPRP	-0.104
RRIRQRPPRLPRPRPRPMHDPRP	-0.0216

-- ask Recorded shrunken log2 fold change of "RRIRERPPRLPRPRPRPHGEPRP" , please.
-- reply -0.0812

-- ask Recorded shrunken log2 fold change of "RRIRARPPRLPRPRPRPTAIPRP" , please.
-- reply 0.977

-- ask Recorded shrunken log2 fold change of "RRIRTRPPRLPRPRPRPCIAPRP" , please.
-- reply -0.226

-- ask Recorded shrunken log2 fold change of "RRIRARPPRLPRPRPRPNMLPRP" , please.
-- reply -0.424
